TARGET: Replicase polyprotein 1ab (Severe acute respiratory syndrome coronavirus 2, UniProt P0DTD1)
ASSAY SUMMARY: Inhibition of SARS-CoV-2 main protease using Mca-AVLQSGFRK(Dnp)K as substrate preincubated with enzyme for 10 mins followed by substrate addition and measured every 30 secs for 10 mins by fluorescence based analysis
Measured IC50 determines class: bin A: < 200 nM; bin B: ≥ 200 nM and < 400 nM; bin C: ≥ 400 nM

# COMPOUND STRING, CLASS LABEL
rows = [
    ("CC(=O)NCn1sc2cc(F)ccc2c1=O", "bin B"),
    ("COc1cc(NC(=O)Cn2sc3cc(F)ccc3c2=O)cc(OC)c1", "bin A"),
    ("Nc1cccc2sn(CC(=O)Nc3ccccc3)c(=O)c12", "bin C"),
    ("COc1ccc2sn(CC(=O)Nc3ccccc3)c(=O)c2c1", "bin A"),
    ("O=c1[nH]sc2cc(F)ccc12", "bin C"),
    ("COc1ccccc1NC(=O)Cn1sc2cc(F)ccc2c1=O", "bin A"),
    ("O=C(Cn1sc2cc(C(F)(F)F)ccc2c1=O)Nc1ccccc1", "bin C"),
    ("COc1cccc(NC(=O)Cn2sc3cc(F)ccc3c2=O)c1", "bin A"),
    ("O=C(Cn1sc2cc(F)ccc2c1=O)Nc1ccccc1C(F)(F)F", "bin B"),
    ("O=C(Cn1sc2cc(F)ccc2c1=O)Nc1ccc(Cl)cc1", "bin A"),
    ("O=C(Nc1ccccc1)n1sc2cc(F)ccc2c1=O", "bin C"),
    ("COc1ccc2c(=O)n(CC(=O)Nc3ccccc3)sc2c1", "bin B"),
    ("O=C(Cn1sc2cc(F)ccc2c1=O)Nc1ccc(C(F)(F)F)cc1", "bin B"),
    ("Nc1cccc2c(=O)n(CC(=O)Nc3ccccc3)sc12", "bin C"),
    ("CC(C)(C)OC(=O)Cn1sc2cc(F)ccc2c1=O", "bin B"),
    ("COc1cccc2sn(CC(=O)Nc3ccccc3)c(=O)c12", "bin B"),
    ("O=c1c2ccc(F)cc2sn1CCCc1ccccc1", "bin C"),
    ("CCNC(=O)Cn1sc2cc(F)ccc2c1=O", "bin B"),
    ("O=C(Cn1sc2cc(F)ccc2c1=O)Nc1cc(Cl)cc(Cl)c1", "bin A"),
    ("O=C(Cn1sc2cc(F)ccc2c1=O)Nc1cccc(Cl)c1", "bin A"),
    ("O=C(O)Cn1sc2cc(F)ccc2c1=O", "bin C"),
    ("O=C(Cn1sc2cc(F)ccc2c1=O)NCc1ccccc1", "bin B"),
    ("O=C(Cn1sc2ccc(F)cc2c1=O)Nc1ccccc1", "bin B"),
    ("O=C(Cn1sc2cccc(F)c2c1=O)Nc1ccccc1", "bin A"),
]

###

TARGET: Replicase polyprotein 1ab (Severe acute respiratory syndrome coronavirus 2)
ASSAY SUMMARY: Inhibition of SARS-CoV-2 main protease using Mca-AVLQSGFRK(Dnp)K as substrate at 40 uM preincubated with enzyme for 10 mins followed by substrate addition and measured every 30 secs for 10 mins by fluorescence based analysis
MEASUREMENT SETUP: time 20.0 min
inhibition for assorted compounds

# COMPOUND, inhibition
data = [
    ("O=c1c2ccc(F)cc2sn1CCCc1ccccc1", "102%"),
    ("CC(C)(C)OC(=O)Cn1sc2cc(F)ccc2c1=O", "104%"),
    ("O=c1[nH]sc2cc(F)ccc12", "106%"),
    ("COc1cccc2sn(CC(=O)Nc3ccccc3)c(=O)c12", "99.6%"),
    ("COc1ccc2sn(CC(=O)Nc3ccccc3)c(=O)c2c1", "99.7%"),
    ("COc1cccc(NC(=O)Cn2sc3cc(F)ccc3c2=O)c1", "101%"),
    ("O=C(Cn1sc2cccc(F)c2c1=O)Nc1ccccc1", "99.5%"),
    ("O=C(Cn1sc2cc(F)ccc2c1=O)NCc1ccccc1", "104%"),
    ("O=C(Cn1sc2cc(F)ccc2c1=O)Nc1cc(Cl)cc(Cl)c1", "108%"),
    ("O=C(Cn1sc2ccc(C(F)(F)F)cc2c1=O)Nc1ccccc1", "99.7%"),
    ("O=C(Cn1sc2c(C(F)(F)F)cccc2c1=O)Nc1ccccc1", "-7.6%"),
    ("CCNC(=O)Cn1sc2cc(F)ccc2c1=O", "102%"),
    ("O=C(Cn1sc2cc(F)ccc2c1=O)Nc1cccc(Cl)c1", "95.5%"),
    ("O=C(Cn1sc2cc(C(F)(F)F)ccc2c1=O)Nc1ccccc1", "100%"),
    ("O=C(Nc1ccccc1)n1sc2cc(F)ccc2c1=O", "102%"),
    ("O=C(Cn1sc2cc(F)ccc2c1=O)NC1CCCC1", "95.5%"),
    ("COc1cc(NC(=O)Cn2sc3cc(F)ccc3c2=O)cc(OC)c1", "96.7%"),
    ("O=C(Cn1sc2ccccc2c1=O)Nc1ccccc1", "99.7%"),
    ("O=C(Cn1sc2cccc(C(F)(F)F)c2c1=O)Nc1ccccc1", "99.7%"),
    ("CC(=O)NCn1sc2cc(F)ccc2c1=O", "102%"),
    ("O=C(Cn1sc2cc(F)ccc2c1=O)Nc1ccccc1Cl", "94%"),
    ("O=C(O)Cn1sc2cc(F)ccc2c1=O", "98.4%"),
    ("COc1ccccc1NC(=O)Cn1sc2cc(F)ccc2c1=O", "99.2%"),
    ("O=C(Cn1sc2cc(F)ccc2c1=O)Nc1cccc(C(F)(F)F)c1", "98.9%"),
    ("CC(C)(C)c1ccc(NC(=O)Cn2sc3cc(F)ccc3c2=O)cc1", "99.9%"),
    ("O=C(Cn1sc2cc(F)ccc2c1=O)Nc1ccccc1C(F)(F)F", "105%"),
    ("O=C(Cn1sc2cc(F)ccc2c1=O)NC1CCCCC1", "97.7%"),
    ("COc1ccc2c(=O)n(CC(=O)Nc3ccccc3)sc2c1", "99.7%"),
    ("Nc1ccc2c(=O)n(CC(=O)Nc3ccccc3)sc2c1", "99.7%"),
    ("O=C(Cn1sc2cc(F)ccc2c1=O)Nc1ccc(C(F)(F)F)cc1", "100%"),
    ("O=C(Cn1oc2cc(F)ccc2c1=O)Nc1ccccc1", "7%"),
    ("Nc1cccc2sn(CC(=O)Nc3ccccc3)c(=O)c12", "99.4%"),
    ("O=C(CN1C(=O)c2ccc(F)cc2S1(=O)=O)Nc1ccccc1", "18.3%"),
    ("O=C(Cn1c(=O)c2ccc(F)cc2[s+]1[O-])Nc1ccccc1 (centres undefined)", "23.5%"),
]
